Listed here are binders together with their documented EC50.
# system: T1, IL-1β-hFc (human)
# T1 construct: also called IL1b-TEV-hIgG1Fc
# measurement description: competition ELISA, IL-1β-hFc coated, competitor IL1RI(1-332)-his at 0.04 µg/ml, anti-His detection
Your answer should be a plain number; it is taken to be in nM.

Solved cases (3 shown):
binder	output unit	reported measurement
murine antibody KF021ZP4 19E4 (antibody, V domains shown, Mouse monoclonal antibody from hybridoma supernatant) VH: DVQLVESGGGLVQPGGSRKLSCAASGFTFSTFGMHWVRQAPEKGLEWVAYISSGSYTIYYADTVRGRFTISRDNPKNTLFLQMTSLRSEDTAMYYCARDDYDVSYYAMDYWGQGTSVTVSS VL: DIVLTQSPASLAVSLGQRATISCRASESVEYYGTSLMQWYQQKPGQPPKLLIYAASNVESGVPARFSGSGSGTDFSLNIHPVEEDDIAMYFCQQSRKVPSLTFGAGTKLELK	nM	0.892
murine antibody KF021ZP4 18H11 (antibody, V domains shown, Mouse monoclonal antibody from hybridoma supernatant) VH: EVQLQQSGPELVKTGASVKISCKASGYLFTGYYMHWVKQSHGKSLEWIGFISCYNGDTTYNQKFKDKATFTVDTSSNTAYMQFNSLTSEDSAVYYCSRSDYYGTSDYWGQGTTLTVSS VL: QIVLTQSPAIMSASPGEKVTITCSASSSVSYMHWFQQKPGTSPKLWIYTTSTLASGVPARFSGSGSGTSYSLTISRMEAEDAATYYCQQRIIYPPTFGGGTKLEIK	nM	0.389
Positive control antibody PcAb (antibody, human IgG1, kappa, V domains shown, also called KF021ZP4 PcAb; KF021ZP4 PCAb) VH: QVQLVESGGGVVQPGRSLRLSCAASGFTFSVYGMNWVRQAPGKGLEWVAIIWYDGDNQYYADSVKGRFTISRDNSKNTLYLQMNGLRAEDTAVYYCARDLRTGPFDYWGQGTLVTVSS VL: EIVLTQSPDFQSVTPKEKVTITCRASQSIGSSLHWYQQKPDQSPKLLIKYASQSFSGVPSRFSGSGSGTDFTLTINSLEAEDAAAYYCHQSSSLPFTFGPGTKVDIKR	nM	0.229

# context switch: different binder, same EC50
INPUT: Tell me the measured EC50 of murine antibody KF021ZP4 9D5 (antibody, V domains shown, Mouse monoclonal antibody from hybridoma supernatant) VH: DVQLVESGGGLVQPGGSRKLSCAASGFTFSTFGMHWVRQAPEKGLEWVAYISSGSYTTYYADTVRGRFTISRDNPKNTLFLQMTSLRSEDTAMYYCARDDYDVSNYVMDYWGQGTSVTVSS VL: DIVLTQSPASLAVSLGQRATISCRASESVEYYGTSLMQWYQQKPGQPPKLLIYAASNVESGVPARFTGSGSGTVFSLNIHPVEEDDIAMYFCQQSRKVPSLTFGAGTKLELK , please.
OUTPUT: 0.37

FYI, the data here is from patent US20220064282A1.
